TEST_NAME: Phase I clinical trial of AST-3424 in China: blood pharmacokinetics compared with US data
Format: in vivo, human
CONDITION_LABEL: human, Chinese and American patients, printed as 'almost lower than', read-out: concentrations after 8 hours
ENDPOINT_NAME: concentration at 8 h

Report measured concentration at 8 h; entry is C[C@H](OP(=O)(N1CC1)N1CC1)c1ccc([N+](=O)[O-])c(Oc2cccc(C(=O)N(C)C)c2)c1 [AST-3424]
< 1 ng/mL

----------
TEST_NAME: Toxicokinetics (D1+D8/21 Days) in monkeys
Format: in vivo, cynomolgus monkeys
CONDITION_LABEL: both sexes, cynomolgus monkey, in vivo, iv
ENDPOINT_NAME: Vd

Report measured Vd; entry is `C[C@H](OP(=O)(N1CC1)N1CC1)c1ccc([N+](=O)[O-])c(Oc2cccc(C(=O)N(C)C)c2)c1`
0.223 to 0.676 L/kg
